substrate: F protein of respiratory syncytial virus (RSV-Long strain), on infectious virus (respiratory syncytial virus (RSV-Long strain)) (UniProt P12568); test: cell-based or functional assay
Sequence (P12568 26-574): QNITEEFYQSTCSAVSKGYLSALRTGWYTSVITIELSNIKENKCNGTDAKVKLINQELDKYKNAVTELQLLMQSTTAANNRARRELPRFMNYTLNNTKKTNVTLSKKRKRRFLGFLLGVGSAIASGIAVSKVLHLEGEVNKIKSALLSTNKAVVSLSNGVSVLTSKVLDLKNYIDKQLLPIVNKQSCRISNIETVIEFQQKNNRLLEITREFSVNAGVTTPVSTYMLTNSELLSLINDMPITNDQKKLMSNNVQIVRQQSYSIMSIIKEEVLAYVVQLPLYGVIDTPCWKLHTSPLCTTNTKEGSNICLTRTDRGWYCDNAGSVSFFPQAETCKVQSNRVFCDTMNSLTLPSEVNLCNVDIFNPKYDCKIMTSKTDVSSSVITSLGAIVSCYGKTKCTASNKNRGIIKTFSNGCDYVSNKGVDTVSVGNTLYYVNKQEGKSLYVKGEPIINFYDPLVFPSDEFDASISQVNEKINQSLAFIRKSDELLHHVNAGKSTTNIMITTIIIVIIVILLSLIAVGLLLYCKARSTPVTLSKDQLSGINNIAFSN
Could you please report measured log10 Mean IC50 µg/ml, RSV microneutralization for the items listed next?
In our notation, the value equals log10 of Mean IC50 µg/ml, RSV microneutralization in µg/mL.

Qu. For the binder Clone 28 (Fab) (Fab, V domains shown) VH: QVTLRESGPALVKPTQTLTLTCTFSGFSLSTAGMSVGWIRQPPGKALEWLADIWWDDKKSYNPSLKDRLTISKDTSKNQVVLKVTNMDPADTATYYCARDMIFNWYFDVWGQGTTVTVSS VL: DIQMTQSPSTLSASVGDRVTITCSPSSRVGYMHWYQQKPGKAPKLLIYDTRYQSSGVPSRFSGSGSGTEFTLTISSLQPDDFATYYCFQGSGYPFTFGGGTKVEIK , give its measured log10 Mean IC50 µg/ml, RSV microneutralization value.
Ans. -0.75

Qu. For the binder Clone 23 (IgG) (antibody, V domains shown) VH: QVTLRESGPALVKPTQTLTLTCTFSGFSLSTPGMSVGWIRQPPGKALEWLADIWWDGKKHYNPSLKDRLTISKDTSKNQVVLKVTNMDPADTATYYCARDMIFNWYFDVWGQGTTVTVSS VL: DIQMTQSPSTLSASVGDRVTITCSPSSRVGYMHWYQQKPGKAPKLLIYDTMRLASGVPSRFSGSGSGTEFTLTISSLQPDDFATYYCFQGSGYPFTFGGGTKVEIKR , give its measured log10 Mean IC50 µg/ml, RSV microneutralization value.
Ans. -1.66

Qu. For the binder Clone 24 (IgG) (antibody, V domains shown) VH: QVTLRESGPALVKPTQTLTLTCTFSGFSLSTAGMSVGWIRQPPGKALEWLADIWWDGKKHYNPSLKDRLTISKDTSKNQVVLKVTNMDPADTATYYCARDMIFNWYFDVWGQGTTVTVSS VL: DIQMTQSPSTLSASVGDRVTITCSLSSRVGYMHWYQQKPGKAPKLLIYDTFKLSSGVPSRFSGSGSGTEFTLTISSLQPDDFATYYCFQGSGYPFTFGGGTKVEIKR , give its measured log10 Mean IC50 µg/ml, RSV microneutralization value.
Ans. -1.20

Qu. For the binder Clone 22 (IgG) (antibody, V domains shown) VH: QVTLRESGPALVKPTQTLTLTCTFSGFSLSTPGMSVGWIRQPPGKALEWLADIWWDDKKHYNPSLKDRLTISKDTSKNQVVLKVTNMDPADTATYYCARDMIFNFYFDVWGQGTTVTVSS VL: DIQMTQSPSTLSASVGDRVTITCSLSSRVGYMHWYQQKPGKAPKLLIYDTRGLPSGVPSRFSGSGSGTEFTLTISSLQPDDFATYYCFQGSGYPFTFGGGTKVEIKR , give its measured log10 Mean IC50 µg/ml, RSV microneutralization value.
Ans. -1.62

Qu. For the binder Clone 27 (Fab) (Fab, V domains shown) VH: QVTLRESGPALVKPTQTLTLTCTFSGFSLSTAGMSVGWIRQPPGKALEWLADIWWDGKKSYNPSLKSRLTISKDTSKNQVVLKVTNMDPADTATYYCARDMIFNFYFDVWGQGTTVTVSS VL: DIQMTQSPSTLSASVGDRVTITCLPSSRVGYMHWYQQKPGKAPKLLIYDTMYQSSGVPSRFSGSGSGTEFTLTISSLQPDDFATYYCFQGSGYPFTFGGGTKVEIK , give its measured log10 Mean IC50 µg/ml, RSV microneutralization value.
Ans. -1.75

Qu. For the binder Clone 18 (IgG) (antibody, V domains shown) VH: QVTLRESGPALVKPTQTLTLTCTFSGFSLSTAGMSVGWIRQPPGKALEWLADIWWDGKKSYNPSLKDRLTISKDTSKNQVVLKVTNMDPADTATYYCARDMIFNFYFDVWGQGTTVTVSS VL: DIQMTQSPSTLSASVGDRVTITCLPSSRVGYMHWYQQKPGKAPKLLIYDTMYQSSGVPSRFSGSGSGTEFTLTISSLQPDDFATYYCFQGSGYPFTFGGGTKVEIKR , give its measured log10 Mean IC50 µg/ml, RSV microneutralization value.
Ans. -1.47

Qu. For the binder Clone 20 (IgG) (antibody, V domains shown) VH: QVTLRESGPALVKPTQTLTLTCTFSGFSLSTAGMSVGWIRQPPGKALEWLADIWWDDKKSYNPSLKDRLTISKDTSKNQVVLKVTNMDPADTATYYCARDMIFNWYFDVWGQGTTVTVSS VL: DIQMTQSPSTLSASVGDRVTITCSPSSRVGYMHWYQQKPGKAPKLLIYDTRYQSSGVPSRFSGSGSGTEFTLTISSLQPDDFATYYCFQGSGYPFTFGGGTKVEIKR , give its measured log10 Mean IC50 µg/ml, RSV microneutralization value.
Ans. -1.47

Qu. For the binder Clone 25 (IgG) (antibody, V domains shown) VH: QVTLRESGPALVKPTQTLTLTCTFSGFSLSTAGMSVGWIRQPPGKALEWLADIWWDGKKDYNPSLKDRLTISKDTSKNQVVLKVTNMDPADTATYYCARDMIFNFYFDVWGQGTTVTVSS VL: DIQMTQSPSTLSASVGDRVTITCSASSRVGYMHWYQQKPGKAPKLLIYDTFKLSSGVPSRFSGSGSGTEFTLTISSLQPDDFATYYCFQGSGYPFTFGGGTKVEIKR , give its measured log10 Mean IC50 µg/ml, RSV microneutralization value.
Ans. -1.45

Qu. For the binder Clone 19 (IgG) (antibody, V domains shown) VH: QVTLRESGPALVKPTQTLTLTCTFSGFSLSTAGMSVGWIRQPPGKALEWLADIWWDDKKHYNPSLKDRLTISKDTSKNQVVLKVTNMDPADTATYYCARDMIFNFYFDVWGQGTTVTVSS VL: DIQMTQSPSTLSASVGDRVTITCSASSRVGYMHWYQQKPGKAPKLLIYDTFFLDSGVPSRFSGSGSGTEFTLTISSLQPDDFATYYCFQGSGYPFTFGGGTKVEIKR , give its measured log10 Mean IC50 µg/ml, RSV microneutralization value.
Ans. -1.77
